Provenance of the data: patent US11173162B2

# System: FGFR3 enzyme
# assay_method_text: FGFR Enzymatic Assay (FRET peptide phosphorylation), FGFR3
# Type: biochemical
# reported_conditions: IC50 ratio showing FGFR3 selectivity; Table 2A, pre-incubated for 4 hours
measured_parameter: FGFR4/FGFR3

Examples from the recorded data:
compound | measured_result
COc1cc(CN2C(=O)N(c3c(F)c(OC)cc(OC)c3F)Cc3cnc(-c4cn(C)nc4C)cc32)ccn1 | >10
CCN1C(=O)N(c2c(F)c(OC)cc(OC)c2F)Cc2cnc(-c3cn(CC)nc3C)cc21 | >3
COc1cc(OC)c(F)c(N2Cc3cnc(-c4cnn(C5CCN(C(C)=O)C5)c4)cc3C3(CC3)C2=O)c1F (stereo not shown) | >5
CCN1C(=O)N(c2c(F)c(OC)cc(OC)c2F)Cc2cnc(-c3ccc(CN4CC[C@H](C#N)C4)cc3)cc21 | >5
COc1cc(OC)c(F)c(N2Cc3cnc(-c4cn(C)nc4C)cc3N(Cc3cnccn3)C2=O)c1F | >10

The reported FGFR4/FGFR3 of the compound `COc1cc(OC)c(F)c(N2Cc3cnc(-c4cn(C)nc4C)cc3N(C3CC3)C2=O)c1F` was >5

The reported FGFR4/FGFR3 of the compound `CCN1C(=O)N(c2c(F)c(OC)cc(OC)c2F)Cc2cnc(-c3ccc(C4(C#N)CCC4)nc3)cc21` was >10

----------
# Test system: FGFR3 enzyme
# assay_method_text: FGFR Enzymatic Assay (FRET peptide phosphorylation), FGFR3
# Type: biochemical
# reported_conditions: IC50 ratio showing FGFR3 selectivity; Table 2A, pre-incubated for 4 hours
A collection of molecules and their measured FGFR1/FGFR3

molecule | test_target | FGFR1/FGFR3
COc1cc(OC)c(F)c(N2Cc3cnc(-c4cn(C)nc4C)cc3N(C3CCOC3)C2=O)c1F (centres unmarked) [Example 33] | FGFR3 enzyme | >5

The reported FGFR1/FGFR3 of the molecule COc1cc(OC)c(F)c(N2Cc3cnc(-c4cnn(CC5CCCS(=O)(=O)N5)c4)cc3C3(CC3)C2=O)c1F (centres unmarked) [Example 162] was >5

The reported FGFR1/FGFR3 of the molecule CCn1cc(CN2C(=O)N(c3c(F)c(OC)cc(OC)c3F)Cc3cnc(-c4cn(C)nc4C)cc32)cn1 [Example 39] was >10

The reported FGFR1/FGFR3 of the molecule COc1cc(OC)c(F)c(N2Cc3cnc(-c4cn(C)nc4C)cc3N(c3cncc(C)n3)C2=O)c1F [Example 87] was >5

The reported FGFR1/FGFR3 of the molecule COc1cc(OC)c(F)c(N2Cc3cnc(-c4cn(C)nc4C)cc3N(C3CCCC3)C2=O)c1F [Example 32] was >1

The reported FGFR1/FGFR3 of the molecule COc1cc(OC)c(F)c(N2Cc3cnc(-c4cn(Cc5cccnc5)nc4C)cc3C3(CC3)C2=O)c1F [Example 155] was >5

----------
A collection of compounds and their measured FGFR1/FGFR3
# System: FGFR3 enzyme
# assay_method_text: FGFR Enzymatic Assay (FRET peptide phosphorylation), FGFR3
# Assay type: biochemical
# reported_conditions: IC50 ratio showing FGFR3 selectivity; Table 2A, pre-incubated for 4 hours

Examples from the recorded data:
compound | FGFR1/FGFR3
COc1cc(OC)c(F)c(N2Cc3cnc(-c4cn(C)nc4C)cc3N(Cc3ccc(F)cc3)C2=O)c1F | >5
COc1cc(OC)c(F)c(N2Cc3cnc(-c4cn(CC(=O)N5CCOCC5)nc4C)cc3C3(CC3)C2=O)c1F | >5
CCN1C(=O)N(c2c(F)c(OC)cc(OC)c2F)Cc2cnc(-c3ccc(C4(C#N)CCC4)nc3)cc21 | >10
COc1cc(OC)c(F)c(N2Cc3cnc(-c4cncc(C(=O)N5CCOCC5)c4)cc3C3(CC3)C2=O)c1F | >3
COc1cc(OC)c(F)c(N2Cc3cnc(-c4cn(C5CCN(C)C5)nc4C)cc3C3(CC3)C2=O)c1F (stereo not shown) | >3
COc1cc(OC)c(F)c(N2Cc3cnc(-c4cn(C)nc4C)cc3N(c3cc(F)cc(C#N)c3)C2=O)c1F | >5

We next turn to a different compound, shown below.
The reported FGFR1/FGFR3 of the compound `COc1cc(OC)c(F)c(N2Cc3cnc(-c4cncc(C#N)c4)cc3C3(CC3)C2=O)c1F` was >5

----------
# System: FGFR3 enzyme
# assay_method_text: FGFR Enzymatic Assay (FRET peptide phosphorylation), FGFR3
# Assay type: biochemical
# reported_conditions: IC50 ratio showing FGFR3 selectivity; Table 2A, pre-incubated for 4 hours
# Description: The inhibitor potency of the exemplified compounds was measured in an enzyme assay that measures peptide phosphorylation using FRET measurements to detect product formation. Inhibitors were serially diluted in DMSO and a volume of 0.5 μL was transferred to the wells of a 384-well plate. GraphPad prism3 was used to analyze the data.
A collection of compounds and their measured FGFR4/FGFR3

Examples from the recorded data:
compound | FGFR4/FGFR3
COc1cc(OC)c(F)c(N2Cc3cnc(-c4cn(C)nc4C)cc3N(Cc3ccc(C#N)nc3)C2=O)c1F [Example 74] | >5
COc1cc(OC)c(F)c(N2Cc3cnc(-c4cn(C)nc4C)cc3N(c3cccc(-c4cnnn4C)c3)C2=O)c1F [Example 89] | >10
COc1cc(OC)c(F)c(N2Cc3cnc(-c4ccc(C5(C#N)CCC5)nc4)cc3N(c3cnn(C)c3)C2=O)c1F [Example 188] | >5
CCn1cc(-c2cc3c(cn2)CN(c2c(F)c(OC)cc(OC)c2F)C(=O)C32CC2)c(C)n1 [Example 158] | >3

The reported FGFR4/FGFR3 of the compound COc1cc(OC)c(F)c(N2Cc3cnc(-c4cn(C)nc4C)cc3N(Cc3cccnn3)C2=O)c1F [Example 88] was >10

The reported FGFR4/FGFR3 of the compound CNC(=O)c1ccc(CN2C(=O)N(c3c(F)c(OC)cc(OC)c3F)Cc3cnc(-c4cn(C)nc4C)cc32)cc1 [Example 62] was >5

The reported FGFR4/FGFR3 of the compound COc1cc(OC)c(F)c(N2Cc3cnc(-c4cn(C)nc4C)cc3N(c3ccc(-c4nnc(C)o4)cc3)C2=O)c1F [Example 115] was >5

----------
# Test system: FGFR3 enzyme
# assay_method_text: FGFR Enzymatic Assay (FRET peptide phosphorylation), FGFR3
# Type: biochemical
# reported_conditions: IC50 ratio showing FGFR3 selectivity; Table 2A, pre-incubated for 4 hours
# Procedure: The inhibitor potency of the exemplified compounds was measured in an enzyme assay that measures peptide phosphorylation using FRET measurements to detect product formation. Inhibitors were serially diluted in DMSO and a volume of 0.5 μL was transferred to the wells of a 384-well plate. GraphPad prism3 was used to analyze the data.
A collection of compounds and their measured FGFR4/FGFR3

structure_string | test_target | FGFR4/FGFR3
COc1cc(OC)c(F)c(N2Cc3cnc(-c4cn(C)nc4C)cc3N(c3cc(F)cc(F)c3)C2=O)c1F | FGFR3 enzyme | >5

The reported FGFR4/FGFR3 of the compound `COc1cc(OC)c(F)c(N2Cc3cnc(-c4ccncc4)cc3C3(CC3)C2=O)c1F` was >3

The reported FGFR4/FGFR3 of the compound `COc1cc(OC)c(F)c(N2Cc3cnc(-c4cn(C)nc4C)cc3N(c3ccc(F)cc3)C2=O)c1F` was >10

The reported FGFR4/FGFR3 of the compound `CCN1C(=O)N(c2c(F)c(OC)cc(OC)c2F)Cc2cnc(-c3cn(CC(=O)N4CCOCC4)nc3C)cc21` was >1

The reported FGFR4/FGFR3 of the compound `COc1cc(OC)c(F)c(N2Cc3cnc(-c4cn(C)nc4C)cc3N(c3ccc(C#N)cc3)C2=O)c1F` was >10

The reported FGFR4/FGFR3 of the compound `CCN1C(=O)N(c2c(F)c(OC)cc(OC)c2F)Cc2cnc(-c3ccc(C(=O)NCCO)nc3)cc21` was >10

The reported FGFR4/FGFR3 of the compound `COc1cc(OC)c(F)c(N2Cc3cnc(-c4ccc(C5(C#N)CCC5)nc4)cc3N(Cc3nnc(C)o3)C2=O)c1F` was >10

----------
A collection of compounds and their measured FGFR3/FGFR4
# test_target: FGFR4 (Homo sapiens (Human), UniProt P22455)
# Sequence (P22455 22-802): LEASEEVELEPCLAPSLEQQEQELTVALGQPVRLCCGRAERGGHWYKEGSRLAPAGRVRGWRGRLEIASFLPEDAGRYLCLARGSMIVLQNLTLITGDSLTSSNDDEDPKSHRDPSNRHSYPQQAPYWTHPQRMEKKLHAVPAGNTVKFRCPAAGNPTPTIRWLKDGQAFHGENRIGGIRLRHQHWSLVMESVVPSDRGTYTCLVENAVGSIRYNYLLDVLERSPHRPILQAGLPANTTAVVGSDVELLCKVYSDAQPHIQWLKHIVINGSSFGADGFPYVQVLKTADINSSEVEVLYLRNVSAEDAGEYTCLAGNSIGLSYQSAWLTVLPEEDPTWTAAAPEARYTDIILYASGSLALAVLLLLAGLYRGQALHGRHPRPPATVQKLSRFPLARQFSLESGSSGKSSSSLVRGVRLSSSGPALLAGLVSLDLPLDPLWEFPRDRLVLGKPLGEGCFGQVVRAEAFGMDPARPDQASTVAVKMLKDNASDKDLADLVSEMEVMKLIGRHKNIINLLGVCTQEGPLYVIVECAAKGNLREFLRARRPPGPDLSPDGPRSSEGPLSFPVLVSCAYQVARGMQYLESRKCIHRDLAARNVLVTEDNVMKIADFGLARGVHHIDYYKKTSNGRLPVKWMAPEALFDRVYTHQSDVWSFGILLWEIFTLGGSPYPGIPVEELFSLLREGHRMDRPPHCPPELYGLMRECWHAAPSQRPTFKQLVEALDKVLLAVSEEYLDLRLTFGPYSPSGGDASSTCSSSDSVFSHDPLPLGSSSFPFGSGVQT
# assay_method_text: FGFR Enzymatic Assay (FRET peptide phosphorylation), FGFR4
# Format: biochemical
# reported_conditions: IC50 ratio showing FGFR4 selectivity; Table 2, pre-incubated for 4 hours
# Experimental: The inhibitor potency of the exemplified compounds was measured in an enzyme assay that measures peptide phosphorylation using FRET measurements to detect product formation. Inhibitors were serially diluted in DMSO and a volume of 0.5 μL was transferred to the wells of a 384-well plate. The enzymes were purchased from Millipore or Invitrogen. GraphPad prism3 was used to analyze the data.

Examples from the recorded data:
structure_string | measured_result
COc1cc(OC)c(F)c(N2Cc3cnc(-c4cc(N)ccc4C)cc3C3(CC3)C2=O)c1F | >25
COc1cc(OC)c(F)c(N2Cc3cnc(-c4cncc(F)c4)cc3C3(CC3)C2=O)c1F | >1
COc1cc(OC)c(F)c(N2Cc3cnc(-c4cncc(CN5CCOCC5)c4)cc3C3(CC3)C2=O)c1F | >10
COc1cc(OC)c(F)c(N2Cc3cnc(-c4cncc(NS(C)(=O)=O)c4)cc3C3(CC3)C2=O)c1F | >10
COc1cc(OC)c(F)c(N2Cc3cnc(-c4cncc(-n5ccnc5)c4)cc3C3(CC3)C2=O)c1F | >10

# FGFR3/FGFR4 measured on FGFR4 (Homo sapiens (Human), UniProt P22455) for item `COc1cc(OC)c(F)c(N2Cc3cnc(-c4cccnc4)cc3C3(CC3)C2=O)c1F` = >1

# FGFR3/FGFR4 measured on FGFR4 (Homo sapiens (Human), UniProt P22455) for item `COc1cc(OC)c(F)c(N2Cc3cnc(-c4nn(CC5CCOCC5)cc4C#N)cc3C3(CC3)C2=O)c1F` = >50

# FGFR3/FGFR4 measured on FGFR4 (Homo sapiens (Human), UniProt P22455) for item `COc1cc(OC)c(F)c(N2Cc3cnc(-c4cncc(N5CCOCC5)c4)cc3C3(CC3)C2=O)c1F` = >25

# FGFR3/FGFR4 measured on FGFR4 (Homo sapiens (Human), UniProt P22455) for item `COc1cc(OC)c(F)c(N2Cc3cnc(-c4cc(N)ccc4C#N)cc3C3(CC3)C2=O)c1F` = >10

# FGFR3/FGFR4 measured on FGFR4 (Homo sapiens (Human), UniProt P22455) for item `COc1cc(OC)c(F)c(N2Cc3cnc(-c4cncc(Cl)c4)cc3C3(CC3)C2=O)c1F` = >10

# FGFR3/FGFR4 measured on FGFR4 (Homo sapiens (Human), UniProt P22455) for item `COc1cc(OC)c(F)c(N2Cc3cnc(-c4cc(N)cnc4C)cc3C3(CC3)C2=O)c1F` = >25

# FGFR3/FGFR4 measured on FGFR4 (Homo sapiens (Human), UniProt P22455) for item `COc1cc(OC)c(F)c(N2Cc3cnc(-c4cncc(N)c4)cc3C3(CC3)C2=O)c1F` = >10

# FGFR3/FGFR4 measured on FGFR4 (Homo sapiens (Human), UniProt P22455) for item `COc1cncc(-c2cc3c(cn2)CN(c2c(F)c(OC)cc(OC)c2F)C(=O)C32CC2)c1` = >10
